Data origin, for the record: PubChem BioAssay

- experimental_protocol: inhibitors of TNFa-induced NFkB p65 translocation, primary screen, imaging, HUVEC, MLSMR starter and 10KST1 sets (AID 438);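 further: compound added about 3h40 before a 20 min TNFalpha stimulation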
- recorded_conditions: HUVEC TNFa-induced p65 nuclear translocation; measured here: nuclei count (cytotoxicity indicator), at 2.08 µM
Each entry below lists one item and its recorded cell count value.

>  <molecule>
COc1cc(NC(=O)c2nccnc2C(=O)O)cc(OC)c1

>  <cell count>
856

$$$$
>  <molecule>
CN1CCN(C(=O)C2(NC(=O)Nc3cccc(F)c3)CCCCC2)CC1

>  <cell count>
586

$$$$
>  <molecule>
O=C(NCc1ccccc1)C1CCCN(S(=O)(=O)c2cccnc2)C1 (stereo not given)

>  <cell count>
230

$$$$
>  <molecule>
CCC(c1nnc(SCC(=O)Nc2ccc(C(=O)Nc3ccccc3OC)cc2)o1)N(C)C (stereo not given)

>  <cell count>
464

$$$$
>  <molecule>
Cc1ccc2c(c1)NC(=O)C(CC(=O)NCCCN1CCN(c3cc(Cl)ccc3C)CC1)O2 (stereo not given)

>  <cell count>
640

$$$$
